System: Plasmodium berghei
Assay: Screen against P. berghei liver stage (PbLuc), transformed with Luciferase, at 10uM
Format: functional, HepG2
Conditions: tested at 10 uM
In all, about 69,000 compounds went through this assay and about 8,600 (12%) showed an effect of 50% or more. What follows is part of a selection rich in strong results, with near analogues and random picks from the rest.
measurement_kind: INHIBITION (%)
Return type: number; implicit unit %.

The compound listed as O=C(NCC1CC1)Nc1ccc(OCC(F)(F)F)nc1 has a reported INHIBITION of 23.73

The compound listed as Cc1ccc(C(=O)N2C[C@@H]3CCCO[C@@H]3[C@H](N3CCOCC3)C2)cn1 has a reported INHIBITION of 52.6

The compound listed as O=C(c1cnccn1)N1CCOC2(CCN(Cc3ccsc3)CC2)C1 has a reported INHIBITION of 13.7

The compound listed as CN1CCC(NC(=O)C2CN(c3cncnc3)CCO2)CC1 (stereo unspecified) has a reported INHIBITION of 14.7

The compound listed as O=C1CC2(CCN(Cc3ccccn3)C2)CN1c1cncnc1 (stereo unspecified) has a reported INHIBITION of -3.41

The compound listed as CC(C)(C)n1ncc(NCc2ccccc2)c(Cl)c1=O has a reported INHIBITION of 61.1

* * *

System: Plasmodium berghei
Experiment: Screen against P. berghei liver stage (PbLuc), transformed with Luciferase, at 10uM
Assay type: functional, HepG2
Conditions: tested at 10 uM
About 8,600 (12%) of roughly 69,000 compounds showed an effect of 50% or more. The entries come from a sample that favours strong results as a whole.
measurement_kind: INHIBITION (%)
Return type: number; implicit unit %.

The compound listed as Cc1cc(O)nc(C2CN(CCC(F)(F)F)CCO2)n1 (stereo unspecified) has a reported INHIBITION of -6.92

The compound listed as COc1ccc(NC(=O)CCSc2ccc3nncn3n2)c(OC)c1 has a reported INHIBITION of 28.1

The compound listed as Cc1cc(O)nc(C2CN(CC3(O)CCOCC3)CCO2)n1 (stereo unspecified) has a reported INHIBITION of -34.6

The compound listed as COc1cccc(C(=O)N2CCc3c(nc(N)[nH]c3=O)C2)c1OC has a reported INHIBITION of -6.91

The compound listed as O=C([C@@H]1C[C@@H]2CCN(C3CCOCC3)C[C@H]2O1)N1CCOCC1 has a reported INHIBITION of -28

The compound listed as COCC1CN(Cc2ccc(C)o2)Cc2nnn(C)c21 (stereo unspecified) has a reported INHIBITION of -102

The compound listed as Cc1ccc(C)c(CSc2nnc(C(N)Cc3ccccc3)o2)c1 (stereo unspecified) has a reported INHIBITION of 43.8

The compound listed as CSc1ccc(C(=O)N2CC(=O)N(Cc3cccs3)CC(O)C2)cc1 (stereo unspecified) has a reported INHIBITION of 19.2

The compound listed as CC(NC(=O)NCCC(=O)OC(C)(C)C)c1nncn1C (stereo unspecified) has a reported INHIBITION of 25.4

The compound listed as Cc1nc(C(C)C)sc1C(C)N(C)C(=O)c1ccc(=O)n(C)n1 (stereo unspecified) has a reported INHIBITION of -19.7

The compound listed as CN(C)CCOCc1cncc2c1CCN(C(=O)c1cscn1)C2 has a reported INHIBITION of 49.4

* * *

Tested on: Plasmodium berghei
Assay: Screen against P. berghei liver stage (PbLuc), transformed with Luciferase, at 10uM
Assay type: functional, HepG2
Conditions: tested at 10 uM
Hit rate of the full screen: of about 69,000 compounds, about 8,600 (12%) showed an effect of 50% or more. The sample holds strong results, similar compounds and a random draw of the others, so the mix is not that of the screen.
Would you mind telling me the reported INHIBITION of each entry?
Return type: number; implicit unit %.

Tested on Plasmodium berghei, the item Cc1cccc(N(CC(=O)N2CCCCC2)C(=O)C2CCCO2)c1 (centres undefined) showed INHIBITION equal to -84.1

Tested on Plasmodium berghei, the item CCc1cnc(N)nc1NC(C)c1ccc(C)c(C)c1 (centres undefined) showed INHIBITION equal to 88.2

Tested on Plasmodium berghei, the item O=C(CN(C1=NCCCC1)c1ccccc1)c1ccc2c(c1)OCCO2 showed INHIBITION equal to 33.3

Tested on Plasmodium berghei, the item CSCC(=O)N(C)Cc1ccccc1 showed INHIBITION equal to 47.4

Tested on Plasmodium berghei, the item O=c1c2cnc(N3CCCCC3)nc2ccn1-c1ccccc1 showed INHIBITION equal to 19.7

Tested on Plasmodium berghei, the item CN1CC(=O)N(c2ccsc2)CC12CCN(C(=O)CC1CCCC1)C2 (centres undefined) showed INHIBITION equal to 21.8

Tested on Plasmodium berghei, the item CN(Cc1ccc(N(C)C)cc1)C(=O)CSc1ccc(Br)cc1 showed INHIBITION equal to 79.1

Tested on Plasmodium berghei, the item CN(Cc1ccccc1)C(=O)CCS(=O)(=O)c1ccc2c(c1)OCCO2 showed INHIBITION equal to 41.4

Tested on Plasmodium berghei, the item CCOc1ccc(N(CC(=O)c2ccccc2)C2=NCCCCC2)cc1 showed INHIBITION equal to 68.7

Tested on Plasmodium berghei, the item CCc1cnc(N)nc1N[C@@H](C)c1ncccc1C showed INHIBITION equal to 3.96

Tested on Plasmodium berghei, the item CCc1nc(C)c(-c2nccn2CC2CCN(C3CCCC3)CC2)[nH]1 showed INHIBITION equal to 22.5

Tested on Plasmodium berghei, the item COc1ccc(C(=O)CN(C2=NCCCCC2)c2ccccc2)cc1 showed INHIBITION equal to 20.1

Tested on Plasmodium berghei, the item CC(=O)Nc1ccc(-n2ccc3nc(N4CCCC4)ncc3c2=O)cc1 showed INHIBITION equal to 80.5

Tested on Plasmodium berghei, the item CCc1nc(C)c(-c2nccn2CC2CCCCO2)[nH]1 (centres undefined) showed INHIBITION equal to -10.2

Tested on Plasmodium berghei, the item CCc1nc(C)c(-c2nccn2CC2CC(=O)N(CC)C2)[nH]1 (centres undefined) showed INHIBITION equal to 55.2

Tested on Plasmodium berghei, the item CN(Cc1ccccc1)C(=O)CSc1ccc2c(c1)OCCO2 showed INHIBITION equal to 73.1

Tested on Plasmodium berghei, the item O=C(CSc1ccc2c(c1)OCCO2)NS(=O)(=O)c1ccccc1F showed INHIBITION equal to 68.2

Tested on Plasmodium berghei, the item CN(C)C1CCN(C(=O)c2cc3c(s2)CCN3C(=O)C2CC2)CC1 showed INHIBITION equal to 49.1

Tested on Plasmodium berghei, the item CC(=O)N1CCN(C(=O)C2CCN(c3cccnn3)C2)CC1 (centres undefined) showed INHIBITION equal to -8.12

Tested on Plasmodium berghei, the item Cc1ccc(-c2noc(CN3CCc4cncnc4C3)n2)cc1 showed INHIBITION equal to 38.6

Tested on Plasmodium berghei, the item Cc1ccc(C2CN(CCCS(=O)(=O)C(C)C)CCO2)c(C)c1 (centres undefined) showed INHIBITION equal to -20.3

Tested on Plasmodium berghei, the item COC[C@]1(O)CCN(C2CCN(c3ccc(F)c(F)c3)CC2)CC1(C)C showed INHIBITION equal to 39.4

Tested on Plasmodium berghei, the item CSCC(=O)N(C)Cc1ccc(N(C)C)cc1 showed INHIBITION equal to 47.4

Tested on Plasmodium berghei, the item CCc1cnc(N)nc1NC(C)c1cnn(C)c1 (centres undefined) showed INHIBITION equal to 17.8

* * *

System: Plasmodium berghei
Assay: Screen against P. berghei liver stage (PbLuc), transformed with Luciferase, at 10uM
Assay type: functional, HepG2
Settings: tested at 10 uM
Hit rate of the full screen: of about 69,000 compounds, about 8,600 (12%) showed an effect of 50% or more. For the sample, strong results were picked, then their nearest neighbours and some compounds at random.
measurement_kind: INHIBITION
Output should be the measured figure followed by the unit it is expressed in.

The compound listed as CCNc1cc2c(nn1)CCN(C(=O)c1cc3cccc(C)c3o1)C2 has a reported INHIBITION of 70.8%

The compound listed as CCO[C@H]1CN(C)C[C@@H]1NC(=O)c1cc(C)nc2c(C)c(C)ccc12 has a reported INHIBITION of 35%

The compound listed as Cc1nnc2n1CCN(C(=O)c1cn(-c3ccccc3)nn1)C2 has a reported INHIBITION of -53.6%

The compound listed as COC(=O)CCNC(=O)c1ccc(OCc2ccccc2)nc1 has a reported INHIBITION of -8.91%

The compound listed as COCCN1CCc2cc(C(=O)NC(C)C)c(NCC3CC3)nc2CC1 has a reported INHIBITION of 70.8%

The compound listed as COC(=O)c1cc(C(=O)N2CCC(OC)CC2)n(-c2ccccc2)n1 has a reported INHIBITION of -12.33%

The compound listed as CC1=CCN(S(=O)(=O)c2cccc(C(=O)N3CCCN(C)CC3)c2)CC1 has a reported INHIBITION of 14%

The compound listed as COCCN1CCc2cc(C(=O)NC(C)C)c(NCC(C)C)nc2CC1 has a reported INHIBITION of 74.9%

The compound listed as Cc1cc(O)n(-c2ccc3nnc(C)n3n2)n1 has a reported INHIBITION of 6.83%

The compound listed as c1ccc(CN2C[C@@H]3CC[C@H]2CN(Cc2nnc(C4CC4)o2)C3)cc1 has a reported INHIBITION of 45.4%

The compound listed as FC(F)(F)COCCN1CCOC(Cn2cccn2)C1 (stereo not drawn) has a reported INHIBITION of 40%

The compound listed as COCCN1CCc2cc(C(=O)N(C)C)c(NCC3CC3)nc2CC1 has a reported INHIBITION of -27.9%

The compound listed as CCS(=O)(=O)N1CCc2cc(C(=O)NC)c(NCC(C)C)nc2CC1 has a reported INHIBITION of -9.02%

The compound listed as Cc1nc2c(c(=O)[nH]1)CN(Cc1ccc3c(c1)CCCN3C)CC2 has a reported INHIBITION of 30.5%

The compound listed as COCCN1CCc2cc(C(=O)O)c(NCC3CC3)nc2CC1 has a reported INHIBITION of -17.2%

The compound listed as CCC(=O)N1C[C@@H](C(=O)NC)[C@H](c2ccnc(N3CCCC3)n2)C1 has a reported INHIBITION of 1.93%

The compound listed as COc1ccc(CNC(=O)c2ccc(Br)cn2)cc1 has a reported INHIBITION of 49%

The compound listed as O=C(c1ccc[nH]1)N1CCc2c(cccc2S(=O)(=O)N2CCOCC2)C1 has a reported INHIBITION of 22.2%

The compound listed as CN(C)CCOCC1CN(C(=O)N2CCCC2)Cc2ccnn2C1 (stereo not drawn) has a reported INHIBITION of 46.6%

The compound listed as CC(NC(=O)NCc1ccccc1Cl)c1ccccn1 (stereo not drawn) has a reported INHIBITION of -49.5%

The compound listed as COCCNC(=O)[C@@H]1C[C@H]2[C@H](CCN2c2cc(OC)ncn2)O1 has a reported INHIBITION of 7.53%

The compound listed as CCOc1cccc(C(=O)NCCC(=O)NCc2ccncc2)c1 has a reported INHIBITION of -5.78%

The compound listed as O=C(NCCc1ccncc1)c1cccc(S(=O)(=O)NC2CC2)c1 has a reported INHIBITION of -78.5%
